% of Wild-Type Signal by entry:
- measured on: biotinylated Gβ1γ2 mutant Met101Ala (rat) (UniProt P54311)
- Sequence (P54311 whole entry M101A, chain 1 of 2): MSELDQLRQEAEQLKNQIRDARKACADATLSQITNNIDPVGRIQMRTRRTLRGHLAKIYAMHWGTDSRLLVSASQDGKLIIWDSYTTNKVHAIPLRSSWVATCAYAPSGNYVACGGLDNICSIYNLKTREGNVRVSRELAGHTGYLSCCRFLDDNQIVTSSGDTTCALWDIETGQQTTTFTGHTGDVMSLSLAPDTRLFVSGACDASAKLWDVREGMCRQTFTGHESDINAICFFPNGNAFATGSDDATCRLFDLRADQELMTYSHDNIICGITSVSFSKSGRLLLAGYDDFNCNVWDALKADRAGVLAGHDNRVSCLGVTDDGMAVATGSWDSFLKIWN
- Sequence (P63212 2-68, chain 2 of 2, further chain): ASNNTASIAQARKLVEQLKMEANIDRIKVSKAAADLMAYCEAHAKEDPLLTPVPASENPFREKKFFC
- method: phage ELISA, % of wild-type b-βγ
measurement name: % of Wild-Type Signal (%)

[[record]]
binder = "WCPPKAMTQLGIKAC (Group II) [phage C14 (WCPPKAMTQLGIKAC)]"
observed_measurement = 1.1

[[record]]
binder = "LCSKAYLLLGQTC (Group I) [phage 2F (LCSKAYLLLGQTC)]"
observed_measurement = 6

[[record]]
binder = "SCKRTKAQILLAPCT (Group I; also called Cl) [phage C1 (SCKRTKAQILLAPCT)]"
observed_measurement = 70.5

[[record]]
binder = "SCGHGLKVQSTIGACA (Group II) [phage 3C (SCGHGLKVQSTIGACA)]"
observed_measurement = -4.2

